Listed below are molecules with IC50 for Leucine-rich repeat serine/threonine-protein kinase 2 (Homo sapiens, UniProt Q5S007), each taken from published literature.

Here's what some known entries look like.
q: // IC50 lookup, key: CCc1cc(N2CCCN(C)CC2)ccc1Nc1ncc(C(F)(F)F)c(NCCCN2CCOCCC2=O)n1
a: 0.1 to 0.3 µM

q: So what's the measured IC50 for this one? CCNc1cc(Nc2ccc(P(C)(=O)N3CCC(N4CCOCC4)CC3)cc2OC)nc2[nH]cc(C(F)(F)F)c12 (stereo not shown)
a: < 0.1 µM

q: What IC50 value was documented for this molecule, Cc1c(F)cccc1-c1ccc2nc(NC(=O)[C@H]3C[C@H]3F)cn2c1 (stereo in doubt) ?
a: 0.101 to 1 µM

For the next question, use this molecule.
q: Name the recorded IC50 for CC(C)CN1CC(n2cc(Nc3ncc(C(F)(F)F)c(NCCCN4CCCC4=O)n3)cn2)C1 .
a: 0.3 to 0.6 µM

###

The following compounds were reported with pIC50 values on Leucine-rich repeat serine/threonine-protein kinase 2 (Homo sapiens) in different studies.
pIC50: −log10 of the molar value.

In the examples that follow, each entry is paired with its recorded pIC50.
q: What measured pIC50 is associated with CN1CCN(c2ccc(Nc3ncc(C(F)(F)F)c(NCCCN4CCCOCC4=O)n3)c(C3CC3)c2)CC1 on Leucine-rich repeat serine/threonine-protein kinase 2 (Homo sapiens)?
a: 7.00 to 9.00

q: Value wanted: pIC50 (Leucine-rich repeat serine/threonine-protein kinase 2 (Homo sapiens)) of entry [2H]C1([2H])CCOc2nn(C3CCOCC3)c(C)c2Nc2ncc3c(Cl)nn1c3n2
a: 7.89

q: Record CCCNc1cc(Nc2ccc(C(=O)N3CCC(N4CCOCC4)CC3)c3c2OCCO3)nc2[nH]cc(C(F)(F)F)c12 : what is its pIC50 with Leucine-rich repeat serine/threonine-protein kinase 2 (Homo sapiens)?
a: > 7.00

Attention now turns to another entry.
q: // map CCCNc1cc(Nc2ccc(C(=O)N3CCOCC3)c3c2OCCO3)nc2[nH]cc(C(F)(F)F)c12 to recorded pIC50 (system: Leucine-rich repeat serine/threonine-protein kinase 2 (Homo sapiens))
a: 6.52 to 7.00

###

pIC50: −log10 of the molar value.
Field pIC50: reported value for Leucine-rich repeat serine/threonine-protein kinase 2 (Homo sapiens, UniProt Q5S007); entries drawn from several documents.

q: Would you kindly share the measured pIC50 for Cc1c(F)cccc1-c1ccc2nc(NC(=O)[C@@H]3C[C@@H]3F)c(Cl)n2c1 ?
a: 6.00 to 7.00

q: State the recorded pIC50 for this entry: CCCNc1cc(Nc2ccc(S(C)(=O)=O)cc2OC)nc2[nH]cc(C#N)c12
a: > 7.00

q: So what's the measured pIC50 for this one? COc1cc(C(=O)N2CCC(N3CCN(C)CC3)CC2)ccc1Nc1ccc2c(n1)N(C)c1ccccc1C(=O)N2C
a: < 5.00

q: State the recorded pIC50 for this entry: Cc1c2c(nn1[C@H]1CCCOCC1)OCCCn1nc(Cl)c3cnc(nc31)N2 (single isomer, unassigned)
a: 7.92

q: Recorded pIC50 for O=C(Nc1cn2cc(-c3cccc(F)c3COCCO)ccc2n1)[C@@H]1C[C@@H]1F , please?
a: 6.00 to 7.00

q: Param item = Cc1n[nH]c2ncc(-c3cncc(N4CCCC4=O)n3)cc12 ; retrieve measured pIC50.
a: < 6.30

q: Suppose we examine the compound CCNc1cc(Nc2ccc(P3(=O)CCN(C4COC4)CC3)cc2OC)nc2[nH]cc(C#N)c12 ; what pIC50 value has been reported?
a: > 7.00

q: Any idea what its pIC50 is? The compound is Cc1n[nH]c2ncc(-c3cccc(CN4CCN(C)CC4)c3)cc12
a: < 6.00
